As a worked illustration, we turn to pKi data collected for UniProtKB P29476.
Sequence (P29476 whole entry): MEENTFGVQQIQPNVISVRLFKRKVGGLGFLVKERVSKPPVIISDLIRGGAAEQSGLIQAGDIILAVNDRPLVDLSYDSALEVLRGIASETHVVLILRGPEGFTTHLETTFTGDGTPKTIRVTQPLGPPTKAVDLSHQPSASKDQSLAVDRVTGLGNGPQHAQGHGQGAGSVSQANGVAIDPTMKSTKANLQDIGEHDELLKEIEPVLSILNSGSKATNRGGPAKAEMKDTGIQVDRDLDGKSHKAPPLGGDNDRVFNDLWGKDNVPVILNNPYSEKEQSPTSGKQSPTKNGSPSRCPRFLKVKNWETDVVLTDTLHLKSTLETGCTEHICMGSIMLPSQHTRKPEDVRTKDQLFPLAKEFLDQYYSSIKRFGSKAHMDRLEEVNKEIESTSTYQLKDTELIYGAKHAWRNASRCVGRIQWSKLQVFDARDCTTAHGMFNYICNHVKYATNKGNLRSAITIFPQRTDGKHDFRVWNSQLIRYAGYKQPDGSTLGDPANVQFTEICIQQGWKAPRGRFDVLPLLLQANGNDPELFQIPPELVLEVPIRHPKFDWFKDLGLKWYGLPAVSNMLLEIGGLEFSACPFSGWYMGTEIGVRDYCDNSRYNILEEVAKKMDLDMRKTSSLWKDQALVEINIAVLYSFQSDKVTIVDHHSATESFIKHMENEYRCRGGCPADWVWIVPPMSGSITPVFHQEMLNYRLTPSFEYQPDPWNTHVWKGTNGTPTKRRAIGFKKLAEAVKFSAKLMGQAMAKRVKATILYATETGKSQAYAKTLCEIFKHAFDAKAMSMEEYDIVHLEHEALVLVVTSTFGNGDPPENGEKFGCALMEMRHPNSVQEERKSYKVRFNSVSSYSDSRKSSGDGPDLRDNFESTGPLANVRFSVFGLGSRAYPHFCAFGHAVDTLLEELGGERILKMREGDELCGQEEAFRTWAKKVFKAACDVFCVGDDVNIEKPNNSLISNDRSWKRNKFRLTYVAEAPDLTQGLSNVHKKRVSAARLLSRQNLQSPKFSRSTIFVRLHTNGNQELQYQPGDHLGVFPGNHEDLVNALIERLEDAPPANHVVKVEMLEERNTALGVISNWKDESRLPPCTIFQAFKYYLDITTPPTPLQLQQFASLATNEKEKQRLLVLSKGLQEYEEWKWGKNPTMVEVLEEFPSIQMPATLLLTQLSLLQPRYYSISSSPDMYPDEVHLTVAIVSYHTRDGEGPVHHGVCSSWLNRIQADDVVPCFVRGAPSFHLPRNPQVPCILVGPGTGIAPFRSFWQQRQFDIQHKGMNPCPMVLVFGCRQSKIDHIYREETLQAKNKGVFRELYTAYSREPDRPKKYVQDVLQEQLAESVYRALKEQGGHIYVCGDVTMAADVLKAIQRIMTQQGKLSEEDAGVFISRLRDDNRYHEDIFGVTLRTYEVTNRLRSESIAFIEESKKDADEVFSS
pKi: −log10 of the molar value.
readout.type: pKi

>  <compound>
Cc1cc(N)nc(C[C@@H]2CNC[C@@H]2OCCNCC(F)(F)c2ccccc2Cl)c1

>  <readout.type>
pKi

>  <value.measured>
6.77

$$$$
>  <compound>
Cc1cc(N)nc(C[C@@H]2CNC[C@@H]2OCCNCC(F)c2cccc(F)c2)c1 (mixture of isomers)

>  <readout.type>
pKi

>  <value.measured>
7.59

$$$$

====

Ki overview
study.target: Nitric oxide synthase 3 (Bos taurus, UniProt P29473)
Sequence (P29473 whole entry): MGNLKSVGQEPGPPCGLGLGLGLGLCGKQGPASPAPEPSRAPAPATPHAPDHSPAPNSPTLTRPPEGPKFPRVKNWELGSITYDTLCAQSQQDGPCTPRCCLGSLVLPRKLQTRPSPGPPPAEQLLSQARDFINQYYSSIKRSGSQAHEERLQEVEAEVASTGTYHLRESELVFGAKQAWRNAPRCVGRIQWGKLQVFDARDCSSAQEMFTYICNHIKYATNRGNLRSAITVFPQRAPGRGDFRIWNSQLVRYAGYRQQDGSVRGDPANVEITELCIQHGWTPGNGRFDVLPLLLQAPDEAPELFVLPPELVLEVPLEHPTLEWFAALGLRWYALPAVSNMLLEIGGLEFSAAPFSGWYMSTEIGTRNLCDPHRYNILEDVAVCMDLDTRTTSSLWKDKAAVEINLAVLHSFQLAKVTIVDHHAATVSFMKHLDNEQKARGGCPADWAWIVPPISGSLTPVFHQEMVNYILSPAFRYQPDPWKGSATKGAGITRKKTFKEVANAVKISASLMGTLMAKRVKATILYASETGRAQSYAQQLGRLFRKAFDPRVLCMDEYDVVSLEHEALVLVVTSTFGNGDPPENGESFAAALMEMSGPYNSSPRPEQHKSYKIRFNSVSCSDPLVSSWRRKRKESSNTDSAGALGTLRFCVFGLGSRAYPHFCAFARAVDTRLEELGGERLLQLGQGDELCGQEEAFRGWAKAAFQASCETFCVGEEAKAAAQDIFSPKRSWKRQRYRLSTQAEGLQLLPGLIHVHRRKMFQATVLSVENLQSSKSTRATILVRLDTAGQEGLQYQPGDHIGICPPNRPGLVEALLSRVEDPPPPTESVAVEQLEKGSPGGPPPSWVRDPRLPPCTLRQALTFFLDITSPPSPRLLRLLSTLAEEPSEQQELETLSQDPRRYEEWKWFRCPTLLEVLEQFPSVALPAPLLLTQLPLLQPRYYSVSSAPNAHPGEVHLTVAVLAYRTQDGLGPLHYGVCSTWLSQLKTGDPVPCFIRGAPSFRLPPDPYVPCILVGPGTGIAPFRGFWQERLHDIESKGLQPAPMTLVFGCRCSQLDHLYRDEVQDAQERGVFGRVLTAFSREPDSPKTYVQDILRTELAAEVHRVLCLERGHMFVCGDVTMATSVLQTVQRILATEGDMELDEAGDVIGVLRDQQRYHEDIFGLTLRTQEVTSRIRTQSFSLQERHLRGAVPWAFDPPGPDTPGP
measurement.notes: Inhibition of bovine eNOS expressed in Escherichia coli assessed as reduction in formation of nitric oxide by hemoglobin capture assay

>  <smiles.text>
Cc1cc(N)nc(C[C@@H]2CNC[C@@H]2OCCNCC(F)(F)c2ccccc2Cl)c1

>  <units>
µM

>  <Ki>
27

$$$$
>  <smiles.text>
Cc1cc(N)nc(C[C@@H]2CNC[C@@H]2OCCNCC(F)(F)c2cccc(F)c2F)c1

>  <units>
µM

>  <Ki>
49

$$$$
>  <smiles.text>
Cc1cc(N)nc(C[C@@H]2CNC[C@@H]2OCCNCC(F)(F)c2cccc(Cl)c2)c1

>  <units>
µM

>  <Ki>
16

$$$$
